tested on: MV4.11; assay: IC50 (cell viability) (log10 M); conditions: 4 days
This listing pairs compounds with measured IC50 (log10 M).
Just the number, please.

Consider the worked cases shown below.
smiles: CCN(CC)CCNC(=O)c1c(C)[nH]c(/C=C2\C(=O)Nc3ccc(F)cc32)c1C
assay_value: -8.14
//
smiles: Cn1c(=O)n(-c2ccc(C(C)(C)C#N)cc2)c2c3cc(-c4cnc5ccccc5c4)ccc3ncc21
assay_value: -7.24
//
smiles: C[C@@]1(C(=O)Nc2ccc(F)nc2)CCCN1c1nc(Nc2cc(C3CC3)n[nH]2)c2cccn2n1
assay_value: -6.27
//
smiles: O=C(NOC[C@H](O)CO)c1ccc(F)c(F)c1Nc1ccc(I)cc1F
assay_value: -7.47

Input line: Which value of IC50 (log10 M) has been reported for CN[C@@H]1C[C@H]2O[C@@](C)([C@@H]1OC)n1c3ccccc3c3c4c(c5c6ccccc6n2c5c31)C(=O)NC4 in the records?
Output line: -9.79
